- TEST_TARGET: human PF4 (Homo sapiens)
- Construct: PF4 is a 70 amino acid, lysine-rich 7.8 kDa platelet-specific protein; made in house; host or cells: Escherichia coli BL21DE3 pLysS (pT7-7) and/or Drosophila S2 cells
- Sequence (P02776 32-101): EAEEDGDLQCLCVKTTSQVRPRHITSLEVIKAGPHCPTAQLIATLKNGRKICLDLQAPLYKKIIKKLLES
- EXPERIMENT: Inhibition of PF4 tetramer formation (BS3 cross-linking, SDS-PAGE)
- Type: biochemical
- EXPERIMENTAL_PARAMETERS: 10 μM inhibitor (column A); read-out: % inhibition of PF4 tetramer formation at single concentration of inhibitor
Each entry below carries its reported inhibition at 10 µM.

| COMPOUND | inhibition at 10 µM [%] |
| --- | --- |
| O=C1c2ccc(S(=O)(=O)c3ccc4c(c3)C(=O)C(C(=O)C3CCOC3)C4=O)cc2C(=O)C1C(=O)C1CCOC1 (centres unmarked) | 59 |
| CC(C)(C)OC(=O)NCC(=O)C1C(=O)c2ccc(S(=O)(=O)c3ccc4c(c3)C(=O)C(C(=O)CNC(=O)OC(C)(C)C)C4=O)cc2C1=O (centres unmarked) | 94 |
| CC(C)(C)OC(=O)N[C@@H](C(=O)C1C(=O)c2ccc(S(=O)(=O)c3ccc4c(c3)C(=O)C(C(=O)[C@H](NC(=O)OC(C)(C)C)c3ccccc3)C4=O)cc2C1=O)c1ccccc1 (some centres unmarked) | 88 |
| O=C(Cn1cccn1)C1C(=O)c2ccc(S(=O)(=O)c3ccc4c(c3)C(=O)C(C(=O)Cn3cccn3)C4=O)cc2C1=O (centres unmarked) | 97 |
| COC(=O)c1ccccc1NC(=O)C1C(=O)c2ccc(S(=O)(=O)c3ccc4c(c3)C(=O)C(C(=O)Nc3ccccc3C(=O)OC)C4=O)cc2C1=O (centres unmarked) | 100 |
| COC(=O)[C@@H]1C[C@H]1C(=O)C1C(=O)c2ccc(C(=O)c3ccc4c(c3)C(=O)C(C(=O)[C@@H]3C[C@H]3C(=O)OC)C4=O)cc2C1=O (some centres unmarked) | 95 |
| CC(C)(C)OC(=O)N1C[C@@H]2[C@H](C1)[C@H]2C(=O)C1C(=O)c2ccc(-c3ccc4c(c3)C(=O)C(C(=O)[C@H]3[C@@H]5CN(C(=O)OC(C)(C)C)C[C@@H]53)C4=O)cc2C1=O (some centres unmarked) | 91 |
| CC(C)(C)OC(=O)N1CC2(CC(C(=O)C3C(=O)c4ccc(C(=O)c5ccc6c(c5)C(=O)C(C(=O)C5CC7(C5)CN(C(=O)OC(C)(C)C)C7)C6=O)cc4C3=O)C2)C1 (centres unmarked) | 88 |
| CSCC(=O)C1C(=O)c2ccc(C(=O)c3ccc4c(c3)C(=O)C(C(=O)CSC)C4=O)cc2C1=O (centres unmarked) | 58 |
| O=C(CC1CCCC1)C1C(=O)c2ccc(S(=O)(=O)c3ccc4c(c3)C(=O)C(C(=O)CC3CCCC3)C4=O)cc2C1=O (centres unmarked) | 94 |
| O=C(c1ccc2c(c1)C(=O)C(C(=O)CN1CCCC1=O)C2=O)c1ccc2c(c1)C(=O)C(C(=O)CN1CCCC1=O)C2=O (centres unmarked) | 100 |
| CC(C)(C)OC(=O)N1CCC[C@H]1C(=O)C1C(=O)c2ccc(C(=O)c3ccc4c(c3)C(=O)C(C(=O)[C@@H]3CCCN3C(=O)OC(C)(C)C)C4=O)cc2C1=O (some centres unmarked) | 100 |
| O=C(c1ccc2c(c1)C(=O)C(C(=O)Nc1ccc(Cl)cc1Cl)C2=O)c1ccc2c(c1)C(=O)C(C(=O)Nc1ccc(Cl)cc1Cl)C2=O (centres unmarked) | 90 |
| CCCCC(=O)C1C(=O)c2ccc(C(=O)c3ccc4c(c3)C(=O)C(C(=O)CCCC)C4=O)cc2C1=O (centres unmarked) | 100 |
| Cc1ccc(NC(=O)C2C(=O)c3ccc(S(=O)(=O)c4ccc5c(c4)C(=O)C(C(=O)Nc4ccc(C)cc4)C5=O)cc3C2=O)cc1 (centres unmarked) | 65 |
| C=C1C[C@@H](C(=O)C2C(=O)c3ccc(C(=O)c4ccc5c(c4)C(=O)C(C(=O)[C@@H]4CC(=C)CN4C(=O)OC(C)(C)C)C5=O)cc3C2=O)N(C(=O)OC(C)(C)C)C1 (some centres unmarked) | 88 |
| CC(C)(C)CC(=O)NCC(=O)C1C(=O)c2ccc(C(=O)c3ccc4c(c3)C(=O)C(C(=O)CNC(=O)CC(C)(C)C)C4=O)cc2C1=O (centres unmarked) | 94 |
| CC(C)(C)OC(=O)N1CC[C@@H](C(=O)C2C(=O)c3ccc(C(=O)c4ccc5c(c4)C(=O)C(C(=O)[C@@H]4CCN(C(=O)OC(C)(C)C)C4)C5=O)cc3C2=O)C1 (some centres unmarked) | 89 |
| O=C(c1ccc2c(c1)C(=O)C(C(=O)NC1CC1)C2=O)c1ccc2c(c1)C(=O)C(C(=O)NC1CC1)C2=O (centres unmarked) | 46 |
| CC(=O)NCC(=O)C1C(=O)c2ccc(C(=O)c3ccc4c(c3)C(=O)C(C(=O)CNC(C)=O)C4=O)cc2C1=O (centres unmarked) | 96 |
| CC(C)(C)CC(=O)NCC(=O)C1C(=O)c2ccc(S(=O)(=O)c3ccc4c(c3)C(=O)C(C(=O)CNC(=O)CC(C)(C)C)C4=O)cc2C1=O (centres unmarked) | 95 |
| CC(C)(C)OC(=O)NCCC(=O)C1C(=O)c2ccc(Oc3ccc4c(c3)C(=O)C(C(=O)CCNC(=O)OC(C)(C)C)C4=O)cc2C1=O (centres unmarked) | 100 |
| O=C(c1ccc2c(c1)C(=O)C(C(=O)Cn1cccn1)C2=O)c1ccc2c(c1)C(=O)C(C(=O)Cn1cccn1)C2=O (centres unmarked) | 89 |
